molecular target: β5i subunit of the 20S proteasome (Homo sapiens, UniProt P20618+P28062); construct: The proteasome tested in the present disclosure was derived from Raji cells; endogenous in cells; host or cells: Raji cells; assay: Proteasome inhibitory activity, β5i subunit (Raji cells treated with compound, lysed, Ac-ANW-AMC substrate); format: cell-based; conditions: proteasome from Raji cells incubated with compound 4 h
Measured Property: IC50

> print(dat)
                                   molecule  measured.property  endpoint.value
1  COc1cccc(CNC(=O)C(CC2CCCCC2)C(=O)N[C@@H](Cc2coc3ccccc23)B(O)O)c1 (some centres unmarked)               IC50         ≤ 50 nM
2  Cc1ccc(C[C@H](NC(=O)C(Cc2ccccc2)C(=O)NCc2ccc3[nH]ccc3c2)B(O)O)cc1 (some centres unmarked)               IC50         ≤ 50 nM
3  COc1cccc(CNC(=O)C(CC2CCCCC2)C(=O)N[C@@H](Cc2ccc(C)cc2)B(O)O)c1 (some centres unmarked)               IC50         ≤ 50 nM
4  Cc1ccc(C[C@H](NC(=O)C(C)C(=O)Nc2ccccc2)B(O)O)cc1 (some centres unmarked)               IC50         ≤ 50 nM
5  CC(C(=O)NCc1cccc(OC(F)(F)F)c1)C(=O)N[C@@H](Cc1coc2ccccc12)B(O)O (some centres unmarked)               IC50         ≤ 50 nM
6  CC(C(=O)NCc1cccc(-c2ccccc2)n1)C(=O)N[C@@H](Cc1ccccc1)B(O)O (some centres unmarked)               IC50    50 to 200 nM
7  COc1cccc(CNC(=O)C(Cc2ccccc2)C(=O)N[C@@H](Cc2ccc(C)cc2)B(O)O)c1 (some centres unmarked)               IC50         ≤ 50 nM
8  O=C(/C=C/C(=O)N[C@@H](Cc1ccccc1)B(O)O)NCc1cccc(-c2ccccc2)n1               IC50    50 to 200 nM
